pIC50: −log10 of the molar value.
// each record: one item and its pIC50 for PI3K γ (Homo sapiens)

The cases that follow already have their pIC50 on record.
CCN1CCN(C2CN(c3cnc4ccc(-c5ccc6nc(N)[nH]c6c5)nc4c3)C2)CC1 = < 5.00
CC1(C)CN(C2CN(c3cnc4ccc(-c5ccc6oc(N)nc6c5)nc4c3)C2)CCN1 = > 6.00
Nc1nc2cc(-c3ccc4ncc(N5C6CCC5COC6)cc4n3)ccc2o1 = > 7.00
C[C@H]1CN(C2CN(c3cnc4ccc(-c5ccc6nc(N)[nH]c6c5)nc4c3)C2)CCN1C = < 5.00
C[C@@H]1COCCN1C1CN(c2cnc3ccc(-c4ccc5oc(N)nc5c4)nc3n2)C1 = > 5.00

I would be grateful if you could provide pIC50 for each of the following entries.
1. Nc1nc2cc(-c3cnc4ccc(N5C6CCC5COC6)nc4c3)ccc2o1
2. Nc1nc2cc(-c3ccc4ncc(N5C6CCC5COC6)nc4n3)ccc2o1
3. CN1CCN(c2ccc3ncc(-c4ccc5oc(N)nc5c4)cc3n2)CC1

["> 5.00", "> 7.00", "< 5.00"]

* * *

molecular target: PI3K δ (Homo sapiens, UniProt O00329); construct: purchased Upstate; assay: PI 3-Kinase HTRF inhibition assay, PI3K δ; type: biochemical; conditions: in vitro; read-out: PI3K δ IC50
Sequence (O00329 whole entry): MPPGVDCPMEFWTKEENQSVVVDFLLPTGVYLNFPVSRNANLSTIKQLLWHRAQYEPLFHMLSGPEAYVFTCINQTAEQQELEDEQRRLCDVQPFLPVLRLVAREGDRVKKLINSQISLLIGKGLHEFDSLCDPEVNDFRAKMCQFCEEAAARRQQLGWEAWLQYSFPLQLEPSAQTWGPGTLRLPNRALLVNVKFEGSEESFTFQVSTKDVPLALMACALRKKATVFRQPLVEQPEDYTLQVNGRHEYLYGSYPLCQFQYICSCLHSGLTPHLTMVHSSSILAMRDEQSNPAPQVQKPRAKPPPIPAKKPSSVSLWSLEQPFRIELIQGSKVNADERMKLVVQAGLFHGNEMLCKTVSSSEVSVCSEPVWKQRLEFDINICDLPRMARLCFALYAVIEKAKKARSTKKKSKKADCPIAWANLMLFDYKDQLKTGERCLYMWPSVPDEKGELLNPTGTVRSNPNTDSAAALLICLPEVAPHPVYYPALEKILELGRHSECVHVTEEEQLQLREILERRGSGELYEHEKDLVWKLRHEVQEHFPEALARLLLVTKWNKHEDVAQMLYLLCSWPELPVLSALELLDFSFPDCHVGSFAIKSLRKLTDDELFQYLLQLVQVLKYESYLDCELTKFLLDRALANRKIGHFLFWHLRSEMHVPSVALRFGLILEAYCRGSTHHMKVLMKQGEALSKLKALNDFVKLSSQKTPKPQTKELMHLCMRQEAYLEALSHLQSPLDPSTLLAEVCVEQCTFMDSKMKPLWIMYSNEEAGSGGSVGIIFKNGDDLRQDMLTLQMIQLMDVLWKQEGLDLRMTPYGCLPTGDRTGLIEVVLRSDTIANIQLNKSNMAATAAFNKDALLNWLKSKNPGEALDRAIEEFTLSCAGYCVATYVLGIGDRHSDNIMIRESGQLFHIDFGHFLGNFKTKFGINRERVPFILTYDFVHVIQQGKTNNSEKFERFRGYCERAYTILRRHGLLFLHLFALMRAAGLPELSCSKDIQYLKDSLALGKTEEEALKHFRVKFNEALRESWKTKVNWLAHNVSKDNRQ
Sequence (P27986 whole entry partner): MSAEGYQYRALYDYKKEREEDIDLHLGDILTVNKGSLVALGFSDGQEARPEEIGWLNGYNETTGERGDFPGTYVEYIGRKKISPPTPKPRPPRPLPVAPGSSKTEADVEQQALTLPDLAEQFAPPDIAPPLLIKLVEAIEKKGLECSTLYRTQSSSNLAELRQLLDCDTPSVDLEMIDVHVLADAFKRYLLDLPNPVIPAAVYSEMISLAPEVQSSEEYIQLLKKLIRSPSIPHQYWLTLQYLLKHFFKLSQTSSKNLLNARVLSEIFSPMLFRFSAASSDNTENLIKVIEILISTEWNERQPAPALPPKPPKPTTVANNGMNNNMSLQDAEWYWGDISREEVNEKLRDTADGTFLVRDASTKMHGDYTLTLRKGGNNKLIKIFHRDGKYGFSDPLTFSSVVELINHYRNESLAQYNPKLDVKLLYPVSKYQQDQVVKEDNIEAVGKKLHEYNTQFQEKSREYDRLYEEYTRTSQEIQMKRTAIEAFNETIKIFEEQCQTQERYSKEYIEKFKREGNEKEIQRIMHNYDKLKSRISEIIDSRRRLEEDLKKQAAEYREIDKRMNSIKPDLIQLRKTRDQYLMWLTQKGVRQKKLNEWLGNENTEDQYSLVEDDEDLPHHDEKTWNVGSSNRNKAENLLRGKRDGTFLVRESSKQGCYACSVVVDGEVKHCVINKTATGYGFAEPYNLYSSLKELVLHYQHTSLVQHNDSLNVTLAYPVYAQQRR
Hi there, I'd appreciate the recorded IC50 for every entry that follows.

C[C@H]1CN(C2CN(c3cnc4ccc(-c5ccc6oc(N)nc6c5)nc4n3)C2)CCN1C = < 10 µM

I would be grateful if you could provide IC50 for each of the following entries.
1. Nc1nc2cc(-c3ccc4ncc(N5CC(N6CCNCC6)C5)nc4n3)ccc2o1
2. Nc1nc2cc(-c3ccc4ncc(N5CCC(F)(F)CC5)nc4n3)ccc2o1

1. > 10 µM
2. > 10 µM

I would be grateful if you could provide IC50 for each of the following entries.
1. NCC(=O)N1CCN(c2cnc3ccc(-c4ccc5oc(N)nc5c4)nc3n2)CC1
2. CC(C)N1CCN(C2CN(c3cnc4ccc(-c5ccc6oc(N)nc6c5)nc4c3)C2)CC1
3. CC1(C)CN(C2CN(c3cnc4ccc(-c5ccc6oc(N)nc6c5)nc4c3)C2)CCN1
4. CC(C)N1CCN(C2CN(c3cnc4ccc(-c5ccc6oc(N)nc6c5)nc4n3)C2)CC1
5. C[C@@H]1COCCN1C1CN(c2cnc3ccc(-c4ccc5oc(N)nc5c4)nc3c2)C1
6. CC1CN(C2CN(c3cnc4ccc(-c5ccc6oc(N)nc6c5)nc4n3)C2)CCO1 (stereo not drawn)
7. C[C@H]1CN(C2CN(c3cnc4ccc(-c5ccc6oc(N)nc6c5)nc4c3)C2)CCN1C

1. < 10 µM
2. < 1 µM
3. < 1 µM
4. > 10 µM
5. < 1 µM
6. > 10 µM
7. < 1 µM

I would be grateful if you could provide IC50 for each of the following entries.
1. Nc1nc2cc(-c3cnc4ccc(N5CCOCC5)nc4c3)ccc2o1
2. CN1CCN(C2CN(c3cnc4ccc(-c5ccc6oc(N)nc6c5)nc4c3)C2)CC1(C)C
3. C[C@@H]1CN(C2CN(c3cnc4ccc(-c5ccc6oc(N)nc6c5)nc4n3)C2)CCN1C

1. > 10 µM
2. < 0.1 µM
3. < 10 µM

I would be grateful if you could provide IC50 for each of the following entries.
1. C[C@H]1CN(C2CN(c3cnc4ccc(-c5ccc6oc(N)nc6c5)nc4n3)C2)CCN1
2. C[C@H]1COCCN1c1cnc2ccc(-c3ccc4oc(N)nc4c3)nc2n1
3. Nc1nc2cc(-c3ccc4ncc(-c5cccnc5)nc4n3)ccc2o1
4. CC(C)N1CCN(c2cnc3ccc(-c4ccc5oc(N)nc5c4)nc3c2)CC1

< 10 µM
> 10 µM
> 10 µM
< 1 µM
